Origin of the recorded values: ChEMBL document CHEMBL1201862

System: COLO 205
Assay: NCI tumour cell line growth inhibition, 48 h
The source made the active and inactive calls. Rule as the data show it: active = GI50 up to about 1.1 µM and inactive = higher.
Permitted responses: True = active, False = inactive

{"columns": ["COMPOUND", "GROUP"],
 "data": [
  ["CC(C)(C)OC(=O)NC1CCCCC1NC(=O)C(=O)NC1CCCCC1NC(=O)OC(C)(C)C (stereo not drawn)", "False"]
]}

Request: Could you please tell me the result logged for COC1=CC(=O)C2=C(C[C@@]3(C)C(=C2)C(CO)=CC[C@H]3O)C1=O in this assay?
Response: False

Request: Param item: Cc1cc(S(=O)(=O)O)c(NC(=O)C(=O)C2C=CCS2(=O)=O)cc1Cl (stereo not drawn)
Response: False

====

Test system: HCT-15
MEASURED_QUANTITY: GI50

# example entries with known answers
{"columns": ["MOLECULE", "GI50"],
 "data": [
  ["C=C(C)[C@@H]1CC[C@]2(COC(C)=O)CC[C@]3(C)[C@H](CC[C@@H]4[C@@]5(C)CC[C@H](OC(C)=O)C(C)(C)[C@@H]5CC[C@]43C)[C@@H]12 [BETULIN DIACETATE]", "> 50 µM"],
  ["COc1cc([C@@H]2c3cc4c(cc3[C@@H](OC3OC5COC(C)OC5C(OC(=O)CN5CCN(C)CC5)C3OC(=O)CN3CCN(C)CC3)C3COC(=O)[C@@H]32)OCO4)cc(OC)c1OC(=O)CN1CCN(C)CC1 (stereo partly drawn)", "> 100 µM"]
]}

Lab note: next molecule to report on.
Request: For the molecule CS(=O)(=O)Nc1ccc2c(c1)N(S(C)(=O)=O)CC2COS(C)(=O)=O (stereo not drawn) , what GI50 is on record?
Response: > 100 µM

====

# Lookup of reported GI50 keyed by entry
Test system: HOP-18
Test: NCI tumour cell line growth inhibition, 48 h
Calls of active or inactive are those of the source. Rule as the data show it: active = GI50 up to about 1.1 µM and inactive = higher.

{"columns": ["COMPOUND", "MEASURED_QUANTITY", "DATA_VALUE"],
 "data": [
  ["CC1=C(C#N)C(=O)CC(c2ccc(Cl)cc2)N(C)N1 (configuration not stated)", "GI50", "24.4 µM (inactive)"],
  ["CCCc1c[nH]c(-c2ccc(-c3cc(CCC)c(C=O)[nH]3)s2)c1", "GI50", "27.7 µM (inactive)"],
  ["CCOc1ccc2c(ccc(/C=C/c3cc(C)c4cccnc4c3O)[n+]2C)c1", "GI50", "2.8 µM (inactive)"],
  ["O=C(O)CNS(=O)(=O)c1ccc(NC(=O)c2ccccc2[N+](=O)[O-])cc1", "GI50", "> 100 µM (inactive)"],
  ["O=c1[nH]c(=O)n(C2OC(COP(=O)(O)OP(=O)(O)OC3OC(CO)C(O)C(O)C3O)C(O)C2O)cc1F (configuration not stated)", "GI50", "3.22 µM (inactive)"],
  ["Cc1cc(Cl)ccc1NC(=O)C(=O)C(C(=O)c1ccc2ccccc2c1)C1OC(=O)c2ccccc21 (configuration not stated)", "GI50", "0.544 µM (active)"]
]}

Request: For the compound COc1ccc(C[C@H](N)C(=O)N2C[C@H](CO)C[C@H](n3cnc4c(N(C)C)ncnc43)C2)cc1 , what GI50 is on record?
Response: 45.7 µM (inactive)

Request: Param item: O=C1C(=O)N(c2nccs2)C(=O)C(=O)C1c1nc2ccccc2s1
Response: 9.23 µM (inactive)

Request: Param item: O=C(c1nc2ccc(Cl)cc2nc1O)C(O)c1ccc2c(c1)OCO2 (configuration not stated)
Response: 12.8 µM (inactive)

Request: Param item: O=S(=O)(c1ccccc1)N1N=C2c3ccccc3CCC[C@H]2C1c1ccccc1 (some centres not stated)
Response: > 100 µM (inactive)

Request: Param item: COc1ccc2c(c1)[C@@H](NC(C)=O)CCc1cc(OC)c(OC)c(OC)c1-2
Response: > 100 µM (inactive)

Request: Param item: COc1cc(/C=C2\NC(=O)C3Cc4c(OC)c(C)c(OC)c(OC)c4C2N3C)c(OC)c(C)c1OC (configuration not stated)
Response: > 100 µM (inactive)

====

# Lookup of reported GI50 keyed by entry
System: RXF 393
Experiment: NCI tumour cell line growth inhibition, 48 h
Active and inactive are the calls of the source. Rule as the data show it: active = GI50 up to about 1.1 µM and inactive = higher.

# example entries with known answers
{"columns": ["COMPOUND", "DATA_VALUE"],
 "data": [
  ["CC12CC(C#N)(C#N)C(C#N)(CO1)C(=N)O2 (stereo unspecified)", "59.7 µM (inactive)"],
  ["O=C1N(c2ccc(Cl)cc2)C(=O)C2(SC=NN2Cc2ccccc2)N1c1ccc(Cl)cc1 (stereo unspecified)", "37.9 µM (inactive)"],
  ["Cc1n[nH]c(=O)n1C1CC1", "> 100 µM (inactive)"],
  ["O=c1[nH]c(=O)n(C2CC(O)C(CO)O2)cc1OCCc1ccccc1 (stereo unspecified)", "> 100 µM (inactive)"],
  ["CO/C(=N\\N=C\\c1ccc(Cl)c(Cl)c1)c1ccncc1", "> 10 µM (inactive)"]
]}

Request: For the compound COC(=O)[C@@H]1CN(C(=O)Cc2ccccc2)C(=O)N1 , what GI50 is on record?
Response: > 100 µM (inactive)

Request: Param item: O=C(c1ccccc1)C(c1ccccc1)C1(O)C(=O)Nc2ccc(Br)cc21 (stereo unspecified)
Response: > 100 µM (inactive)

Request: Param item: CC1=C2C(=CC(C)(C)C2O)C(=O)C(C)(O)C12CC2 (stereo unspecified)
Response: 0.00752 µM (active)

Request: Param item: COc1ccc2c(c1)nc1n2C(N)=Nc2ccccc2S1
Response: 30 µM (inactive)

Request: Param item: COC(=O)c1cc(-c2ccc3ccccc3c2)nc(O)c1C#N
Response: > 100 µM (inactive)

Request: Param item: Fc1ccc(C(OCCN2CCC3CCC(C2)N3C/C=C/c2ccco2)c2ccc(F)cc2)cc1 (stereo unspecified)
Response: 4.4 µM (inactive)

Request: Param item: Cc1ccc(S(=O)(=O)n2cc(C#N)c(C#N)c2)cc1
Response: 32.3 µM (inactive)

====

Tested on: LXFL 529
Experiment: NCI tumour cell line growth inhibition, 48 h
The source made the active and inactive calls. Rule as the data show it: active = GI50 up to about 1.1 µM and inactive = higher.
# Lookup of reported GI50 keyed by entry

{"columns": ["COMPOUND", "DATA_VALUE"],
 "data": [
  ["Cc1cc(S(=O)(=O)O)c(NC(=O)C(=O)C2C=CCS2(=O)=O)cc1Cl (stereo unspecified)", "> 100 µM (inactive)"]
]}

Request: For the compound O=C(c1ccccc1)C(c1ccccc1)C1(O)C(=O)Nc2ccc(Br)cc21 (stereo unspecified) , what GI50 is on record?
Response: 19.8 µM (inactive)

Request: Param item: CS(=O)(=O)c1ccc(-c2cc(-c3ccc(S(C)(=O)=O)cc3)[n+](-c3cc(-c4ccc(S(C)(=O)=O)cc4)c([O-])c(-c4ccc(S(C)(=O)=O)cc4)c3)c(-c3ccc(S(C)(=O)=O)cc3)c2)cc1
Response: > 100 µM (inactive)

Request: Param item: O=c1[nH]c(=O)n(C2OC(COP(=O)(O)OP(=O)(O)OC3OC(CO)C(O)C(O)C3O)C(O)C2O)cc1F (stereo unspecified)
Response: 0.151 µM (active)

Request: Param item: CCc1ccccc1NC(=O)CCc1nnc(S)[nH]1
Response: > 100 µM (inactive)

Request: Param item: COC(=O)NN=C1C(C)(C)C(=NNC(=O)OC)C1(C)C
Response: > 100 µM (inactive)

====

Test system: RPMI-8226
Assay: NCI tumour cell line growth inhibition, 48 h
Activity calls are given as the source filed them. Rule as the data show it: active = GI50 up to about 1.1 µM and inactive = higher. Where a SMILES comes first, the peptide text is derived from it. The star is where a group is joined. Cbz = O=C(OCc1ccccc1)*
Permitted responses: 1 (yes) (active), 0 (no) (inactive)

{"columns": ["COMPOUND", "GROUP"],
 "data": [
  ["CCOC(=O)CCC(NC(=O)C(Cc1ccccc1)NC(=O)OCc1ccccc1)C(=O)OCC (stereo not drawn) (Cbz-Phe-Glu(OEt)-OEt; configuration not given here)", "0 (no)"],
  ["O=C1C(=O)N(c2nccs2)C(=O)C(=O)C1c1nc2ccccc2s1", "0 (no)"],
  ["COc1ccc2c(c1)CN([C@@H](C)[C@H]1CC[C@H]3[C@@H]4CC[C@H]5C[C@@H](O)CC[C@]5(C)[C@H]4CC[C@]13C)CO2", "1 (yes)"],
  ["COC(=O)c1c(C(=O)OC)c(C(c2ccccc2)c2ccccc2)n(-c2ccccc2)c1Cl", "0 (no)"],
  ["CN(C)C(=S)Nc1nnc(NC23CC4CC(CC(C4)C2)C3)s1.[O-][Cl+3]([O-])([O-])O", "0 (no)"],
  ["Cc1ccc(C(=O)/C=C2/Nc3ccc([N+](=O)[O-])cc3N/C2=C/C(=O)c2ccc(C)cc2)cc1", "0 (no)"]
]}

Request: Could you please tell me the result logged for Cc1cc2ccccc2n2c1nc1ccccc12 in this assay?
Response: 0 (no)

Request: Param item: Cc1cc2nc(N3C(=O)/C(=C/c4cccc([N+](=O)[O-])c4)N=C3c3ccccc3)sc2cc1C
Response: 0 (no)

Request: Param item: CCOC(=O)CCc1c(C)c2ccc(O)cc2oc1=O
Response: 0 (no)
